B1: Azoarcus group I ribozyme (parent)
chain: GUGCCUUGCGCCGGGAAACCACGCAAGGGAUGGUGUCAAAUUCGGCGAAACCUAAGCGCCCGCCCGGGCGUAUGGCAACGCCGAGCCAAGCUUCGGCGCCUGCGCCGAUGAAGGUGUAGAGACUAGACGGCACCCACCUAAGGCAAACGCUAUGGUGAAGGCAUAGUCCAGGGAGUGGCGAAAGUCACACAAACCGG

- Variants of: B1
- assay procedure: reverse-splicing fitness (ratio to wild type); higher = more active; in vitro selection; Mg2+ level not given
Outcome label depends on reverse-splicing fitness relative to 0.01: at/above gives Yes, below gives No.

* C82U A111G A120G A145C C150G C169G U176C | No
* C82A A145C C150U C169G | No
* C82U A145U C150U C169G | No
* C82U A111U A145U C169U U176A | Yes
* C82U A111G C150A C169G U176G | No
* C82A A111G A120G A145C C169U U176A | Yes

API: above_or_equal(metric=reverse-splicing fitness, cutoff=0.01) for item C82G A111C A145C C150G C169U U176G
No

Please tell me: is the variant C82G A111C A145C C169U at or over 0.01 in terms of reverse-splicing fitness?
Yes

Confirm if reverse-splicing fitness reported for the variant A111U A120C C169U U176A is 0.01 or above.
Yes

Could you tell me if the measured reverse-splicing fitness of C82A A111G A120U C150A U176G reaches 0.01 or more?
No

Say whether C82A A111C A120U A145G C169G shows reverse-splicing fitness of 0.01 or more.
No
